# protocol details: Human HepG2 cell viability assay in 384 well format
# Assay type: toxicity, cell-based
# Parameters: dose 125 nL, time 70.5 hour; concentration not given beside the values
# run conditions: HepG2 cells, read-out: Inhibition
Consider the following compounds; for each one, report its cytotoxicity at 70.5 h.
Give bare numbers, in %.

Some solved entries appear below for comparison.
In [3]: df
Out[3]:
                                   compound  output_unit  observed_value
0  CC1(C)CC(N(Cc2ccccc2)Cc2c[nH]cn2)CC(C)(C)N1            %            2.11
1  CCS(=O)(=O)CC(=O)N1CCCC(c2noc(C(C)C)n2)C1 (stereo unspecified)            %             8.9
2  Cc1cnc(-c2nc(C3CCN(C(=O)Cc4ccsc4)CC3)no2)cn1            %            2.59
3  COc1cc(C(=O)N2CCC(c3n[nH]c(C4CC4)n3)CC2)ccc1C            %            36.5
4     OC1(Cn2ccc3ncccc32)CCN(Cc2ccccc2F)CC1            %            2.31

[ask] Can you share its cytotoxicity at 70.5 h? I mean this compound: Cc1nc(Cn2c3c(ccc2=O)CC(NC(C)C)CC3)cs1 (stereo unspecified)
[reply] -9.3

* * *

Field: cytotoxicity at 70.5 h. Provide a value for each of the compounds that follow.
# protocol details: Human HepG2 cell viability assay in 384 well format
# Assay type: toxicity, cell-based
# Design: dose 125 nL, time 70.5 hour; concentration not given beside the values
# run conditions: HepG2 cells, read-out: Inhibition

# count of solved cases: 5
In [3]: df
Out[3]:
                                   compound  observed_value
0  Cc1ccc2c(c1)C(NC1CC1)CC21CCNCC1 (configuration not stated)             11%
1  O=C(C[C@H]1[C@H]2CN(C(=O)Cc3ccccn3)C[C@@H]12)Nc1cccnc1          -1.03%
2               NC(=O)CCCNC(=O)Cc1cccc(I)c1          -1.69%
3  Cc1nc(CC(=O)NCCN2CCC(c3ccccc3C)C2)cs1 (configuration not stated)          -8.35%
4       Cn1cc(C(=O)N2CCC(c3ncc[nH]3)CC2)cn1          -17.5%

Batch lookup, cytotoxicity at 70.5 h per entry.
1. Cc1noc(NC(=O)c2ccc(Br)cc2)n1
2. NC(=O)COc1cccc(Cn2cccn2)c1
3. O=C(Cn1ccc2sccc2c1=O)NC1CCCCC1
4. CCc1nnc2n1CCN(C(=O)c1cc3cc(F)ccc3[nH]1)C2
5. COc1cccc(CN2CCOC(Cn3nc(C)cc3C)C2)c1 (configuration not stated)

[reply]
48.3%
-3.94%
-9.58%
0.76%
-6.54%

I have 2 compounds here; please give me cytotoxicity at 70.5 h for each one.
1. CS(=O)(=O)N1CCCC12CCCN(C(=O)c1ccnnc1)C2 (configuration not stated)
2. O=C(NC1CCC1)[C@H]1C[C@@H]2CN(C(=O)Nc3ccc(F)cc3)C[C@H]1O2

[reply]
1: -11.3%; 2: -5.31%

* * *

# protocol details: Human HepG2 cell viability assay in 384 well format
# Assay type: toxicity, cell-based
# Design: dose 125 nL, time 70.5 hour; concentration not given beside the values
# run conditions: HepG2 cells, read-out: Inhibition
outcome measure: cytotoxicity at 70.5 h
Phrase the answer as number then unit, nothing more needed.

                                   compound         outcome_measure  observed_value
0  Fc1cccnc1OC[C@@]12CCO[C@@H]1CCN(CC1CCOCC1)C2  cytotoxicity at 70.5 h          -9.65%

Record cytotoxicity at 70.5 h per entry; entries follow.
1. CC(Cn1cccn1)NCc1csc(COc2ccc(F)cc2)n1 (configuration not stated)
2. COC(=O)c1ccc(NC(C)c2ccc3c(c2)CC(=O)N3)nn1 (configuration not stated)
3. CCCNC(=O)CCC(=O)n1nc(C)c2ccccc21
4. CCn1ccnc1CN1CCCN(C(=O)Cc2ccccc2C)CC1
5. CCCc1cc(NC2CCc3nc(C(C)C)nn3C2)n2ncnc2n1 (configuration not stated)

[reply]
1. -1.54%
2. -10.3%
3. 1.02%
4. -1.08%
5. -104%

Count: 6. Required value per item: cytotoxicity at 70.5 h.
1. CCc1nc(CN2CCCC(N(C)Cc3cnc(C)cn3)C2)no1 (configuration not stated)
2. CC1(C)[C@H](Cc2cc(CO)on2)C[C@@H]1NCc1ccc(CO)o1
3. CNC(=O)[C@@]12CCO[C@@H]1CCN(S(=O)(=O)c1ccccc1F)C2
4. O=C1N(c2cccnc2)CCC12CCCN(Cc1ccoc1)C2 (configuration not stated)
5. CC(CO)CN(Cc1ccccc1)C(=O)c1csc(CN(C)C)n1 (configuration not stated)
6. CN(CC(=O)NC(C)(C#N)C1CC1)Cc1nc2ccccc2n1C (configuration not stated)

[reply]
["-71.2%", "14.7%", "-13.3%", "-4.21%", "-3.43%", "4.49%"]

Fill in cytotoxicity at 70.5 h for each of the 3 compounds listed.
1. CCOC(=O)CNC(=O)NCc1cc(C)n(-c2ccc(OC)cc2)c1C
2. CN(Cc1cnn(C)c1)C(=O)C(c1ccccc1)N1CCSCC1 (configuration not stated)
3. CN(C)S(=O)(=O)N1C[C@@H]2CC[C@H](C1)N(Cc1ccc(F)c(F)c1)C2

[reply]
["-22.5%", "-9.84%", "4.72%"]

Give cytotoxicity at 70.5 h for each of the items listed below.
1. CN(Cc1cncnc1)[C@H]1CN(C(=O)c2ccco2)[C@@H]2CCCO[C@@H]21
2. CC1CCC(NS(=O)(=O)CC(=O)NCC2CCC2)CC1 (configuration not stated)
3. CCc1cc(NC(C)(C)C)nc(N2CCOCC2)n1
4. CCn1nc(C)c2ncnc(N(C)C)c21

[reply]
1: -10.9%; 2: -13.2%; 3: -12%; 4: -3.05%

Parameter requested: cytotoxicity at 70.5 h. Apply to each item below.
1. CC(=O)N1CCC2(CC1)CNc1c(F)cccc12
2. CCN(Cc1nc2c(cnn2C)c(=O)[nH]1)c1cccc(F)c1
3. CCn1cc(C(=O)N2CCOC(c3nc(-c4cccs4)no3)C2)cn1 (configuration not stated)
4. CN(C)C(=O)N1CCN(C(=O)c2cccc(Cl)c2)CC2(CNC(=O)C2)C1 (configuration not stated)
5. CN1CCN(S(=O)(=O)c2cccc(F)c2)c2ccccc21

[reply]
-6.53%
-5.89%
-2.41%
-4.76%
11.9%

For every item in the list below, what is its measured cytotoxicity at 70.5 h?
1. Cc1cc(C)n(C2CN(CC(=O)NC3CCOCC3)C2)n1
2. CC(=O)N[C@@H]1CN(Cc2cccs2)C[C@H]1c1ccc(C)o1
3. Cc1cncc(C(=O)N2C[C@@H](C(=O)O)[C@H](C(C)C)C2)c1
4. NC(=O)c1cn(CC2CCC2)c(C2CC2)n1

[reply]
1. -0.827%
2. 1.3%
3. 28.4%
4. 3.19%

Each compound below has a reported value. Please supply its cytotoxicity at 70.5 h.
1. COCCN1CCC2(CC1)C(=O)Nc1ccc(C(=O)NC(C)C)cc12
2. O=C(Nc1nncs1)N1CCC(CCO)CC1
3. O=C(N1CCCO1)[C@@]12CCO[C@@H]1CCN(C1CCCCC1)C2
4. Cc1cc(C)n(CC(C)CNC(=O)CCc2ccco2)n1 (configuration not stated)
5. Cc1nc(CN2CCO[C@@H]3CN(Cc4nccs4)C[C@@H]3C2)cs1

[reply]
1: 1.35%; 2: -7.1%; 3: 14%; 4: -6.24%; 5: -1.91%

Each compound below has a reported value. Please supply its cytotoxicity at 70.5 h.
1. CCCNCc1ccc(-c2cc(N)nc3[nH]ccc23)cc1
2. COc1cccc(-c2ccnc3nc(N4CCCCC4)[nH]c(=O)c23)c1
3. O=C1CCC(C(=O)Nc2cnn(-c3ccccc3Cl)c2)N1 (configuration not stated)
4. CCN(C(=O)Nc1cccnc1OC)C1CC1
5. CC(C)c1nnc2n1CCN(C(=O)c1ccc3c(c1)NC(=O)CO3)C2
6. F[C@@H]1CN(Cc2ccccc2)C[C@@H]1OCc1nc2ccccc2[nH]1

[reply]
-0.725%
17.7%
-9.74%
-9.27%
-2.96%
0.621%

* * *

# protocol details: Human HepG2 cell viability assay in 384 well format
# Assay type: toxicity, cell-based
# Parameters: dose 125 nL, time 70.5 hour; concentration not given beside the values
# run conditions: HepG2 cells, read-out: Inhibition
outcome measure: cytotoxicity at 70.5 h (%)
Numbers only, in %.

Below, each entry is followed by its recorded cytotoxicity at 70.5 h result.
In [3]: df
Out[3]:
                                   molecule         outcome_measure  observed_value
0  COc1cc(C(C)=O)ccc1OCC(=O)N(CC(C)C#N)C1CC1 (configuration not stated)  cytotoxicity at 70.5 h           -7.18
1          O=C1OCCN1CCN1CCCN(Cc2ccccc2F)CC1  cytotoxicity at 70.5 h           -4.26
2  COc1ccc(CC(=O)N2CCC3(CC2)CCN(CC(C)C)C3=O)cc1  cytotoxicity at 70.5 h           -10.5
3  Cc1nn(C)c(N(C)C)c1CNCCCN(C(C)C)S(C)(=O)=O  cytotoxicity at 70.5 h            8.55
4  Cc1cn2c(n1)CCC(NC(=O)c1cc[nH]n1)C2 (configuration not stated)  cytotoxicity at 70.5 h           -4.85
5  COCCN1CCC2(CC1)CC(N1CCOCC1)c1cc(C)ccc12 (configuration not stated)  cytotoxicity at 70.5 h            4.82
6  CN(C)CC1CN(c2ccc(C#N)cn2)CCO1 (configuration not stated)  cytotoxicity at 70.5 h           -10.1
7  c1ccc(-n2ncc(CN3CCCC3Cn3cccn3)n2)cc1 (configuration not stated)  cytotoxicity at 70.5 h           -15.5

Dear colleague, could you send me cytotoxicity at 70.5 h for each of the items below? Thanks.
1. Cc1cnc(C(=O)NC(CN2CCCC2=O)c2ccccc2)cn1 (configuration not stated)
2. Cc1cccc(C)c1OCCCN1CCN(CC2CCCO2)CC1 (configuration not stated)
3. Cc1cnc(Nc2cccc(C3CCCN3Cc3cn(C)nc3C)n2)s1 (configuration not stated)
4. Cc1nn(C)c(N(C)C)c1CNC(C)COc1ccccc1F (configuration not stated)

[reply]
1: -1.21; 2: 18.9; 3: 76; 4: -11.1

Cited source for all entries: ChEMBL document CHEMBL3507680
